Target: CSF1 receptor (CSF1R) (UniProt P07333)
Sequence (P07333 20-972 limits assumed): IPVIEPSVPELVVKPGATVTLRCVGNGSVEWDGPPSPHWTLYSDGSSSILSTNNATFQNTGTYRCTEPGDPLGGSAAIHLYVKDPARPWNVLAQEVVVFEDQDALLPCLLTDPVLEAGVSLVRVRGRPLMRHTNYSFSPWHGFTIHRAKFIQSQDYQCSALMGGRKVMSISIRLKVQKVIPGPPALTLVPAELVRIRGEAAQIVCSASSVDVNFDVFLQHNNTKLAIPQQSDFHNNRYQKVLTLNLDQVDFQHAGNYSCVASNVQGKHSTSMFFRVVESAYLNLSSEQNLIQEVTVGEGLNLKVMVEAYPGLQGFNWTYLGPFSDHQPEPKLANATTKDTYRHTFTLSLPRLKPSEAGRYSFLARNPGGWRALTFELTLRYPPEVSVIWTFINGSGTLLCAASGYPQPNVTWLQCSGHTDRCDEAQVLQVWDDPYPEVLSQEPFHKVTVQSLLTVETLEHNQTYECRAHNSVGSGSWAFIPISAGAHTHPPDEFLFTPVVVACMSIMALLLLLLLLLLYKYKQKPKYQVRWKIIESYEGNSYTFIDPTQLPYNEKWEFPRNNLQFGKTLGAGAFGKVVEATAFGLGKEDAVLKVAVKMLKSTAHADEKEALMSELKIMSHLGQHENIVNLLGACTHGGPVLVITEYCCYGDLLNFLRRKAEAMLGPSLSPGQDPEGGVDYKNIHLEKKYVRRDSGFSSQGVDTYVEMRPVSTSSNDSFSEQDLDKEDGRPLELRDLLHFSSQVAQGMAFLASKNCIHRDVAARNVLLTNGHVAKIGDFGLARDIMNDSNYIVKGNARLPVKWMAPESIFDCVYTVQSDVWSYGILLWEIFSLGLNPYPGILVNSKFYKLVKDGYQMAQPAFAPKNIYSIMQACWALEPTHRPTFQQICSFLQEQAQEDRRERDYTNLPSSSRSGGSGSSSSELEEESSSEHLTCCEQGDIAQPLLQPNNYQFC
Assay: cell-based or functional assay
readout.name: Max activation value, HEK293 CSF1R/SRE reporter, biological replica 1
Returns: the value as a bare number; no unit string appended.

Before answering, review these 3 worked examples.
• CSF1 A76I, V117L (ligand) EEVSEYCSHMIGSGHLQSLQRLIDSQMETSCQITFEFVDQEQLKDPVCYLKKAFLLVQDIMEDTMRFRDNTPNAIIIVQLQELSLRLKSCFTKDYEEHDKACVRTFYETPLQLLEKLKNVFNETKNLLDKDWNIFSKNCNNSFAECSSQD = 8.55
• CSF1 V117I (ligand) EEVSEYCSHMIGSGHLQSLQRLIDSQMETSCQITFEFVDQEQLKDPVCYLKKAFLLVQDIMEDTMRFRDNTPNAIAIVQLQELSLRLKSCFTKDYEEHDKACVRTFYETPLQLLEKIKNVFNETKNLLDKDWNIFSKNCNNSFAECSSQD = 7.64
• CSF1 (wild-type human CSF1) (ligand) EEVSEYCSHMIGSGHLQSLQRLIDSQMETSCQITFEFVDQEQLKDPVCYLKKAFLLVQDIMEDTMRFRDNTPNAIAIVQLQELSLRLKSCFTKDYEEHDKACVRTFYETPLQLLEKVKNVFNETKNLLDKDWNIFSKNCNNSFAECSSQD = 8.49

Query: Assign Max activation value, HEK293 CSF1R/SRE reporter, biological replica 1 to the following record: CSF1 V120I (ligand) EEVSEYCSHMIGSGHLQSLQRLIDSQMETSCQITFEFVDQEQLKDPVCYLKKAFLLVQDIMEDTMRFRDNTPNAIAIVQLQELSLRLKSCFTKDYEEHDKACVRTFYETPLQLLEKVKNIFNETKNLLDKDWNIFSKNCNNSFAECSSQD
Result: 8.86
